The measured values listed here are drawn from patent US20250320213A1.

# Tested on: CCL17 secretion in peripheral human whole blood
# test_details: Human Whole Blood (HWB) CCL17 TR-FRET Assay (IL-13 stimulated CCL17 secretion)
# Type: cell-based
# recorded_conditions: human whole blood, IL-13 stimulated, 48 hours
quantity_measured: IC50 (nM)

Below are worked cases with known answers.
compound="CN(C)C(=O)Nc1ccc(CNC(=O)c2nn(C3CCOC3)c3c2CN(c2ccc(C(=O)N(C)C)cn2)CC3)cc1 (single isomer, unassigned) [Example 191]" value_measured=126
compound="CN(C)C(=O)Nc1ccc(CNC(=O)c2nn(C3CCOC3)c3c2CN(c2ccc(C(=O)N(C)C)cn2)CC3)cc1 (single isomer, unassigned) [Example 190]" value_measured=38

(1) CC(C)n1nc(C(=O)NCc2ccc(NC(=O)N(C)C)cc2)c2c1CC(C(F)(F)F)N(c1ccc(C(=O)N(C)C)cn1)C2 (single isomer, unassigned) [Example 277]
(2) CCC1CN(c2ccc(C(=O)N(C)C)cn2)Cc2c(C(=O)NCc3ccc(NC(=O)N(C)C)cc3)nn(CC)c21 (single isomer, unassigned) [Example 312]
Task: Consider entries 1 and 2 . Which has the numerically lower IC50? Record your answer as the label of the chosen record.
Output: 1
(1: 109 nM, 2: 163 nM)
